- Tested on: Target C CJ mRNA
- protocol text: Gene panel canonical junction qPCR splicing assay, Target C
- Type: cell-based
- stated conditions: Table 4, read-out: Target C IC50 (decrease in CJ mRNA levels)
# IC50 per record follows

The cases that follow already have their IC50 on record.
>>> value_measured("Cn1cc2cc(-c3ccc4nc(C5CCNCC5)ccc4n3)ncc2n1")
"1000 to 10000 nM"
>>> value_measured("CC(C)(C)NC1CCN(c2ccc3nc(-c4cc5cnccc5cc4O)ccc3n2)C1 (stereo not drawn)")
"> 10000 nM"
>>> value_measured("Cc1nc2c(F)c(O)c(-c3ccc4nc(N5CC[C@@H](NC(C)(C)C)C5)ccc4n3)cc2o1 (single isomer, unassigned)")
"< 100 nM"
>>> value_measured("Cc1nc2cc(O)c(-c3ccc4nc(N5CCC(NC(C)(C)C)C5)ccc4n3)cc2o1 (stereo not drawn)")
"< 100 nM"
>>> value_measured("Cc1nc2cc(O)c(-c3ccc4nc(C5CCNCC5)ccc4n3)cc2o1")
"< 100 nM"

QUERY: Check Target C CJ mRNA data and give IC50 for COc1cc2nc(C)sc2cc1-c1ccc2nc(N3CCC(NC(C)(C)C)C3)ccc2n1 (stereo not drawn) .
RESULT: 1000 to 10000 nM

###

# IC50 per record follows
- Tested on: HTT mRNA
- protocol text: Splicing assay (RT-qPCR) of HTT mRNA alternative junction (AJ) and canonical junction (CJ)
- Format: cell-based
- stated conditions: decrease in CJ mRNA; A673 or K562 cells, 24 hours; read-out: HTT CJ IC50

>>> value_measured("Cn1cc2cc(-c3ccc4nc(N5CCC(NC6CC6)C5)ccc4n3)c(O)cc2n1 (centres unmarked)")
"< 100 nM"

QUERY: Specify reported IC50 for the compound shown: Cc1nc2c(F)c(O)c(-c3ccc4nc(N5CC[C@@H](NC6CC6)C5)ccc4n3)cc2o1 (single isomer, unassigned)
RESULT: < 100 nM

QUERY: Specify reported IC50 for the compound shown: CN1CCC(N(C)c2ccc3nc(-c4cc5cn(C)nc5cc4O)ccc3n2)CC1
RESULT: 100 to 1000 nM

QUERY: Specify reported IC50 for the compound shown: Cn1cc2c(O)c(-c3ccc4nc(C5CCNCC5)ccc4n3)ccc2n1
RESULT: > 10000 nM

QUERY: Specify reported IC50 for the compound shown: Cn1cc2cc(-c3ccc4nc(N5CC[C@@H](NC6CC6)C5)ccc4n3)c(O)cc2n1
RESULT: < 100 nM

QUERY: Specify reported IC50 for the compound shown: Cc1c(O)c(-c2ccc3nc(N4CC[C@@H](NC5(C)CC5)C4)ccc3n2)cc2cn(C)nc12 (single isomer, unassigned)
RESULT: < 100 nM

QUERY: Specify reported IC50 for the compound shown: Cc1nc2c(C)c(O)c(-c3ccc4nc(N5CC[C@@H](NC(C)(C)C)C5)ccc4n3)cc2o1 (single isomer, unassigned)
RESULT: < 100 nM

QUERY: Specify reported IC50 for the compound shown: Cc1nc2c(C)c(O)c(-c3ccc4nc(N5CCC(NC6CCC6)C5)ccc4n3)cc2o1 (centres unmarked) [Compound 235]
RESULT: < 100 nM

QUERY: Specify reported IC50 for the compound shown: Cn1cc2cc(-c3cc4ccc(N5CCC(NC(C)(C)C)C5)nc4cn3)c(O)cc2n1 (centres unmarked)
RESULT: > 10000 nM

QUERY: Specify reported IC50 for the compound shown: Cc1nc2cc(O)c(-c3ccc4nc(N5CCC(NC(C)(C)C)C5)ccc4n3)cc2s1 (centres unmarked)
RESULT: > 10000 nM

QUERY: Specify reported IC50 for the compound shown: Cn1cc2cc(-c3ccc4nc(N5C[C@H]6CC[C@@H](C5)N6)ccc4n3)c(O)cc2n1
RESULT: 1000 to 10000 nM

QUERY: Specify reported IC50 for the compound shown: C[C@H]1C[C@H](c2ccc3nc(-c4cc5cn(C)nc5cc4O)ccc3n2)CCN1 (relative stereo)
RESULT: < 100 nM

QUERY: Specify reported IC50 for the compound shown: CN[C@@H]1CCN(c2ccc3nc(-c4cc5cn(C)nc5cc4O)ccc3n2)C1
RESULT: < 100 nM

QUERY: Specify reported IC50 for the compound shown: CN1CCC(c2ccc3nc(-c4cc5cn(C)nc5cc4O)ccc3n2)CC1
RESULT: 100 to 1000 nM

QUERY: Specify reported IC50 for the compound shown: Cc1nc2c(C)c(O)c(-c3ccc4nc(N5CCC(NC(C)(C)C)C5)ccc4n3)cc2o1 (single isomer, unassigned)
RESULT: < 100 nM
